Species on record: Rattus norvegicus
assay-comment: Open TG-GATES - Regimen: Daily Repeat
Format: toxicity, organism-based, Sprague-Dawley
Parameters: regimen Daily Repeat, gender Male, age 6 weeks
condition-summary: in vivo, po, 100 mg/kg, […], tissue Plasma, route gavage, dose level Low, time 7 day
Provide the recorded Cl for the entries that follow.
Answers are plain numbers, in meq/L.

{"columns": ["compound", "measurement-units", "Cl"],
 "data": [
  ["COC1=CC(=O)C[C@@H](C)[C@]12Oc1c(Cl)c(OC)cc(OC)c1C2=O", "meq/L", 103.8],
  ["CCOc1ccc(NC(=O)CC(C)O)cc1 (stereo not given)", "meq/L", 105],
  ["NC(N)=Nc1nc(CSCCC(N)=NS(N)(=O)=O)cs1", "meq/L", 103],
  ["CCOC(=O)CCC(=O)O[C@H]1[C@H](O[C@@H]2[C@@H](C)[C@H](O[C@H]3C[C@@](C)(OC)[C@@H](O)[C@H](C)O3)[C@@H](C)C(=O)O[C@H](CC)[C@@](C)(O)[C@H](O)[C@@H](C)C(=O)[C@H](C)C[C@@]2(C)O)O[C@H](C)C[C@@H]1N(C)C [ERYTHROMYCIN ETHYLSUCCINATE]", "meq/L", 108.2]
]}

Param item = COc1ccc2[nH]c([S+]([O-])Cc3ncc(C)c(OC)c3C)nc2c1 (stereo not given) ; retrieve measured Cl. 101.4

----------
Provide the recorded Eos for the entries that follow.
Species on record: Rattus norvegicus
assay-comment: Open TG-GATES - Regimen: Daily Repeat
Type: toxicity, organism-based, Sprague-Dawley
Set-up: regimen Daily Repeat, gender Male, age 6 weeks
condition-summary: in vivo, po, 10 mg/kg, […], tissue Blood, route gavage, dose level Low, time 7 day

The examples below pair each entry with its known result.
{"columns": ["molecule", "assay-result"],
 "data": [
  ["CN(C)CCCN1c2ccccc2CCc2ccccc21", "1.2%"],
  ["CN(C)CCN(Cc1cccs1)c1ccccn1", "1%"],
  ["CC1=C(/C=C/C(C)=C/C=C/C(C)=C/CO)C(C)(C)CCC1", "0.8%"]
]}

# context switch: different molecule, same Eos
Param item = CC(C)OC(=O)C(C)(C)Oc1ccc(C(=O)c2ccc(Cl)cc2)cc1 [FENOFIBRATE] ; retrieve measured Eos. 1%

----------
Species: Rattus norvegicus
assay-comment: Open TG-GATES - Regimen: Single
Type: toxicity, organism-based, Sprague-Dawley
Design: regimen Single, gender Male, age 6 weeks
condition-summary: in vivo, po, 1000 mg/kg, 6 h, tissue Kidney, route gavage, dose level High
quantity-measured: KIDNEY_L (g)
One number for each entry, in g.

The examples below pair each entry with its known result.
{"columns": ["molecule", "KIDNEY_L (g)"],
 "data": [
  ["COC1=CC(=O)C[C@@H](C)[C@]12Oc1c(Cl)c(OC)cc(OC)c1C2=O [GRISEOFULVIN]", 1],
  ["COc1ccc2[nH]c([S+]([O-])Cc3ncc(C)c(OC)c3C)nc2c1 (stereo not given) [OMEPRAZOLE]", 1],
  ["CCOC(=O)CCC(=O)O[C@H]1[C@H](O[C@@H]2[C@@H](C)[C@H](O[C@H]3C[C@@](C)(OC)[C@@H](O)[C@H](C)O3)[C@@H](C)C(=O)O[C@H](CC)[C@@](C)(O)[C@H](O)[C@@H](C)C(=O)[C@H](C)C[C@@]2(C)O)O[C@H](C)C[C@@H]1N(C)C [ERYTHROMYCIN ETHYLSUCCINATE]", 1],
  ["CC(C)OC(=O)C(C)(C)Oc1ccc(C(=O)c2ccc(Cl)cc2)cc1 [FENOFIBRATE]", 0.8]
]}

# context switch: different molecule, same KIDNEY_L
Param item = NC(N)=Nc1nc(CSCCC(N)=NS(N)(=O)=O)cs1 [FAMOTIDINE] ; retrieve measured KIDNEY_L. 1

----------
Species: Rattus norvegicus
assay-comment: Open TG-GATES - Regimen: Single
Type: toxicity, organism-based, Sprague-Dawley
Set-up: regimen Single, gender Male, age 6 weeks
condition-summary: in vivo, po, 10 mg/kg, 3 h, tissue Plasma, route gavage, dose level Low
Label scheme for TBIL: lower than 0.06 mg/dL is NOT MET, 0.06 mg/dL and above is MET.

Here are 4 molecules together with their reported answers.
{"columns": ["molecule", "assigned-category"],
 "data": [
  ["CN(C)CCCN1c2ccccc2CCc2ccccc21 [IMIPRAMINE]", "MET"],
  ["CN(C)CCN(Cc1cccs1)c1ccccn1", "NOT MET"],
  ["CC1=C(/C=C/C(C)=C/C=C/C(C)=C/CO)C(C)(C)CCC1 [RETINOL]", "NOT MET"],
  ["CN(C)CCCN1c2ccccc2CCc2ccc(Cl)cc21 [CLOMIPRAMINE]", "MET"]
]}

Continue with the next molecule.
Does CC(C)OC(=O)C(C)(C)Oc1ccc(C(=O)c2ccc(Cl)cc2)cc1 [FENOFIBRATE] have a reported TBIL of at least 0.06 mg/dL? NOT MET

----------
Organism: Rattus norvegicus
assay-comment: Open TG-GATES - Regimen: Single
Type: toxicity, organism-based, Sprague-Dawley
Parameters: regimen Single, gender Male, age 6 weeks
condition-summary: in vivo, po, 100 mg/kg, 9 h, tissue Kidney, route gavage, dose level Low
Provide the recorded KIDNEY_L for the entries that follow.
Give bare numbers, in g.

The examples below pair each entry with its known result.
{"columns": ["molecule", "assay-result"],
 "data": [
  ["CCOC(=O)CCC(=O)O[C@H]1[C@H](O[C@@H]2[C@@H](C)[C@H](O[C@H]3C[C@@](C)(OC)[C@@H](O)[C@H](C)O3)[C@@H](C)C(=O)O[C@H](CC)[C@@](C)(O)[C@H](O)[C@@H](C)C(=O)[C@H](C)C[C@@]2(C)O)O[C@H](C)C[C@@H]1N(C)C [ERYTHROMYCIN ETHYLSUCCINATE]", 1],
  ["COC1=CC(=O)C[C@@H](C)[C@]12Oc1c(Cl)c(OC)cc(OC)c1C2=O", 1],
  ["NC(N)=Nc1nc(CSCCC(N)=NS(N)(=O)=O)cs1", 0.9]
]}

# context switch: different molecule, same KIDNEY_L
Param item = COc1ccc2[nH]c([S+]([O-])Cc3ncc(C)c(OC)c3C)nc2c1 (centres undefined) ; retrieve measured KIDNEY_L. 1

----------
Species on record: Rattus norvegicus
assay-comment: Open TG-GATES - Regimen: Single
Type: toxicity, organism-based, Sprague-Dawley
Parameters: regimen Single, gender Male, age 6 weeks
condition-summary: in vivo, po, 0 mg/kg, 3 h, tissue Blood, route gavage, dose level Control
quantity-measured: RBC (x10_4/ul)
Numbers only, in x10_4/ul.

The examples below pair each entry with its known result.
{"columns": ["molecule", "measurement-units", "RBC"],
 "data": [
  ["COc1ccc2[nH]c([S+]([O-])Cc3ncc(C)c(OC)c3C)nc2c1 (stereo not given)", "x10_4/ul", 610.2],
  ["CN(C)CCCN1c2ccccc2CCc2ccccc21", "x10_4/ul", 632.8],
  ["Cc1ccc(C)c(OCCCC(C)(C)C(=O)O)c1", "x10_4/ul", 621.6],
  ["COC1=CC(=O)C[C@@H](C)[C@]12Oc1c(Cl)c(OC)cc(OC)c1C2=O", "x10_4/ul", 620.8],
  ["CC1=C(/C=C/C(C)=C/C=C/C(C)=C/CO)C(C)(C)CCC1", "x10_4/ul", 621.4],
  ["CC/C(=C(\\c1ccccc1)c1ccc(OCCN(C)C)cc1)c1ccccc1", "x10_4/ul", 601.8],
  ["CC(C)OC(=O)C(C)(C)Oc1ccc(C(=O)c2ccc(Cl)cc2)cc1 [FENOFIBRATE]", "x10_4/ul", 616.8],
  ["CN1C(=O)CN=C(c2ccccc2)c2cc(Cl)ccc21", "x10_4/ul", 606],
  ["C[C@@H]1C[C@H]2[C@@H]3CCC4=CC(=O)C=C[C@]4(C)[C@@]3(F)[C@@H](O)C[C@]2(C)[C@@]1(O)C(=O)CO", "x10_4/ul", 615]
]}

# context switch: different molecule, same RBC
Param item = CCOc1ccc(NC(=O)CC(C)O)cc1 (stereo not given) ; retrieve measured RBC. 594.2

----------
Species: Rattus norvegicus
assay-comment: Open TG-GATES - Regimen: Single
Type: toxicity, organism-based, Sprague-Dawley
Design: regimen Single, gender Male, age 6 weeks
condition-summary: in vivo, po, 0 mg/kg, 9 h, tissue Plasma, route gavage, dose level Control
quantity-measured: TP (g/dL)
Answers are plain numbers, in g/dL.

The examples below pair each entry with its known result.
{"columns": ["compound", "TP, g/dL"],
 "data": [
  ["COc1ccc2[nH]c([S+]([O-])Cc3ncc(C)c(OC)c3C)nc2c1 (configuration not stated) [OMEPRAZOLE]", 5.5],
  ["CN(C)CCCN1c2ccccc2CCc2ccc(Cl)cc21 [CLOMIPRAMINE]", 5.1]
]}

Take each entry in turn and give its TP.
1. CCOC(=O)CCC(=O)O[C@H]1[C@H](O[C@@H]2[C@@H](C)[C@H](O[C@H]3C[C@@](C)(OC)[C@@H](O)[C@H](C)O3)[C@@H](C)C(=O)O[C@H](CC)[C@@](C)(O)[C@H](O)[C@@H](C)C(=O)[C@H](C)C[C@@]2(C)O)O[C@H](C)C[C@@H]1N(C)C [ERYTHROMYCIN ETHYLSUCCINATE]
2. C[C@@H]1C[C@H]2[C@@H]3CCC4=CC(=O)C=C[C@]4(C)[C@@]3(F)[C@@H](O)C[C@]2(C)[C@@]1(O)C(=O)CO [DEXAMETHASONE]
3. CCOc1ccc(NC(=O)CC(C)O)cc1 (configuration not stated) [BUCETIN]
4. CC(C)OC(=O)C(C)(C)Oc1ccc(C(=O)c2ccc(Cl)cc2)cc1 [FENOFIBRATE]
5. NC(N)=Nc1nc(CSCCC(N)=NS(N)(=O)=O)cs1 [FAMOTIDINE]

1: 5.4; 2: 5.5; 3: 5.4; 4: 5.2; 5: 5.4
